# EXPERIMENT_DESCRIPTION: Blood pharmacokinetics in mice after intravenous and intraperitoneal injection
# Assay type: in vivo, C57Bl/6 female mice
# APPLIED_CONDITIONS: female, C57Bl/6, mouse, ip; mice, 4 mg/kg intraperitoneal, n = 4; whole blood sampled at 20, 40, 60, 120 min; non-compartmental; UPLC-MS/MS; read-out: half-life after intraperitoneal administration
Where a SMILES comes first, the peptide text is derived from it. [ ]: non-standard residue; d: D form. The star is where a group is joined. NH(4-amidinobenzyl) = N=C(N)c1ccc(CN*)cc1
READOUT: half-life (min)
Report the value in min with no unit label.

Record request: half-life value, item CC(=O)N[C@H](CC(C)C)C(=O)N[C@@H](CC(C)C)C(=O)N[C@@H](CC(C)C)C(=O)N[C@@H](CC(C)C)C(=O)N[C@@H](CCCNC(=N)N)C(=O)N[C@H](C(=O)N[C@@H](CCCCN)C(=O)NCc1ccc(C(=N)N)cc1)C(C)C [Ac-[D-Leu]LLLRVK-amba] (Ac-[dL]LLLRVK-{NH(4-amidinobenzyl)})
15.9

###

# EXPERIMENT_DESCRIPTION: Blood pharmacokinetics in mice after intravenous and intraperitoneal injection
# Assay type: in vivo, C57Bl/6 female mice
# APPLIED_CONDITIONS: female, C57Bl/6, mouse; mice, 4 mg/kg intravenous bolus into tail vein, n = 3; whole blood sampled at 20, 40, 60, 120 min; non-compartmental; UPLC-MS/MS; read-out: half-life after intravenous injection
# Experimental: Animal studies were approved by the regulatory authorities (Regierungspräsidium Karlsruhe of the state of Baden-Württemberg/Germany, 35-9185.81/G-145/21) and fully complied with European and national regulations for the care and use of laboratory animals (2010/63/EU). Eight- to ten-week-old C57Bl/6 female mice (Janvier) were used for the study. […] Calibration curves were determined with 1/x^2 weighted linear regression using peak area ratios of the analyte to IS. […]
Where a SMILES comes first, the peptide text is derived from it. [ ]: non-standard residue; d: D form. The star is where a group is joined. NH(4-amidinobenzyl) = N=C(N)c1ccc(CN*)cc1
READOUT: half-life (min)
Give the quantity in min, number only.

# query: half-life of entry CC(=O)N[C@H](CC(C)C)C(=O)N[C@@H](CC(C)C)C(=O)N[C@@H](CC(C)C)C(=O)N[C@@H](CC(C)C)C(=O)N[C@@H](CCCNC(=N)N)C(=O)N[C@H](C(=O)N[C@@H](CCCCN)C(=O)NCc1ccc(C(=N)N)cc1)C(C)C [Ac-[D-Leu]LLLRVK-amba] (Ac-[dL]LLLRVK-{NH(4-amidinobenzyl)})
21

###

# EXPERIMENT_DESCRIPTION: Bench-top stability in fresh mouse whole blood
# Assay type: in vitro ADME
# APPLIED_CONDITIONS: minimally diluted, 1 µg/mL (1000 ng/mL), room temperature, sampled at 0, 1 and 2 h, duplicates of 20 µL, UPLC-MS/MS peak area ratio analyte/IS, read-out: calculated half-life in whole blood (converted)
Where a SMILES comes first, the peptide text is derived from it. [ ]: non-standard residue; d: D form. The star is where a group is joined. NH(4-amidinobenzyl) = N=C(N)c1ccc(CN*)cc1
READOUT: half-life at 1000 ng/mL (h)
Provide only the numeric value, understood in h.

Record request: half-life at 1000 ng/mL value, item CC(=O)N[C@H](CC(C)C)C(=O)N[C@@H](CC(C)C)C(=O)N[C@@H](CC(C)C)C(=O)N[C@@H](CC(C)C)C(=O)N[C@@H](CCCNC(=N)N)C(=O)N[C@H](C(=O)N[C@@H](CCCCN)C(=O)NCc1ccc(C(=N)N)cc1)C(C)C [Ac-[D-Leu]LLLRVK-amba] (Ac-[dL]LLLRVK-{NH(4-amidinobenzyl)})
1.39

###

# EXPERIMENT_DESCRIPTION: Blood pharmacokinetics in mice after intravenous and intraperitoneal injection
# Assay type: in vivo, C57Bl/6 female mice
# APPLIED_CONDITIONS: female, C57Bl/6, ip; mouse #1, 2 h after intraperitoneal administration of 4 mg/kg; whole blood; UPLC-MS/MS; single sample; read-out: calculated blood concentration
Where a SMILES comes first, the peptide text is derived from it. [ ]: non-standard residue; d: D form. The star is where a group is joined. NH(4-amidinobenzyl) = N=C(N)c1ccc(CN*)cc1
READOUT: level at 2 h (ng/mL)
Please respond with the number in ng/mL and leave the unit unwritten.

What value of level at 2 h has been recorded for this entry: CC(=O)N[C@H](CC(C)C)C(=O)N[C@@H](CC(C)C)C(=O)N[C@@H](CC(C)C)C(=O)N[C@@H](CC(C)C)C(=O)N[C@@H](CCCNC(=N)N)C(=O)N[C@H](C(=O)N[C@@H](CCCCN)C(=O)NCc1ccc(C(=N)N)cc1)C(C)C [Ac-[D-Leu]LLLRVK-amba] (Ac-[dL]LLLRVK-{NH(4-amidinobenzyl)})
15.8
